system: Escherichia coli TOP10; assay: shrunken log2 fold change of peptide-encoding DNA abundance (4.5 h post-induction vs induction); higher = less antimicrobial activity (less host growth inhibition); details: time post-induction: 4.5 h; library: site-saturation at positions 5, 18, 19, 20
Decide using shrunken log2 fold change: a value greater than or equal to 0.004 is 1, a smaller one is -1.

- sequence text: "RRIRYRPPRLPRPRPRPRYTPRP"
  tested system: "Escherichia coli TOP10"
  label class: -1

# bool: shrunken log2 fold change of RRIRKRPPRLPRPRPRPRVGPRP >= 0.004
1

# bool: shrunken log2 fold change of RRIRLRPPRLPRPRPRPFPIPRP >= 0.004
-1

# bool: shrunken log2 fold change of RRIRDRPPRLPRPRPRPFSMPRP >= 0.004
-1

# bool: shrunken log2 fold change of RRIRWRPPRLPRPRPRPNNRPRP >= 0.004
-1

# bool: shrunken log2 fold change of RRIRARPPRLPRPRPRPNKQPRP >= 0.004
1

# bool: shrunken log2 fold change of RRIRGRPPRLPRPRPRPLKSPRP >= 0.004
1

# bool: shrunken log2 fold change of RRIRLRPPRLPRPRPRPMVVPRP >= 0.004
-1

# bool: shrunken log2 fold change of RRIRIRPPRLPRPRPRPANFPRP >= 0.004
-1

# bool: shrunken log2 fold change of RRIRTRPPRLPRPRPRPLHYPRP >= 0.004
-1

# bool: shrunken log2 fold change of RRIRTRPPRLPRPRPRPTCWPRP >= 0.004
1

# bool: shrunken log2 fold change of RRIRERPPRLPRPRPRPASHPRP >= 0.004
-1

# bool: shrunken log2 fold change of RRIRTRPPRLPRPRPRPRMTPRP >= 0.004
1

# bool: shrunken log2 fold change of RRIRQRPPRLPRPRPRPYLIPRP >= 0.004
-1

# bool: shrunken log2 fold change of RRIRKRPPRLPRPRPRPEDSPRP >= 0.004
1

###

system: Escherichia coli TOP10; test: shrunken log2 fold change of peptide-encoding DNA abundance (4.5 h post-induction vs induction); higher = less antimicrobial activity (less host growth inhibition); conditions: time post-induction: 4.5 h; library: site-saturation at positions 5, 18, 19, 20
metric name: shrunken log2 fold change
Numbers only.

- sequence text: "RRIRDRPPRLPRPRPRPYPHPRP"
  endpoint result: 1.85
- sequence text: "RRIRNRPPRLPRPRPRPTSRPRP"
  endpoint result: -0.129
- sequence text: "RRIRGRPPRLPRPRPRPGETPRP"
  endpoint result: 0.515
- sequence text: "RRIRYRPPRLPRPRPRPNVCPRP"
  endpoint result: 0.00285
- sequence text: "RRIRQRPPRLPRPRPRPKWWPRP"
  endpoint result: -0.0687

Please state shrunken log2 fold change for every sequence in the list that follows.
1. RRIRLRPPRLPRPRPRPEFMPRP
2. RRIRQRPPRLPRPRPRPFHKPRP
3. RRIRGRPPRLPRPRPRPTEVPRP

1: -0.109; 2: -0.0921; 3: 0.311

###

test system: Escherichia coli TOP10; test: shrunken log2 fold change of peptide-encoding DNA abundance (4.5 h post-induction vs induction); higher = less antimicrobial activity (less host growth inhibition); details: time post-induction: 4.5 h; library: site-saturation at positions 5, 18, 19, 20
metric name: shrunken log2 fold change
Answers are plain numbers.

# annotated cases, reported shrunken log2 fold change shown
- sequence text: "RRIRGRPPRLPRPRPRPHLHPRP"
  shrunken log2 fold change: 0.227
- sequence text: "RRIRMRPPRLPRPRPRPILEPRP"
  shrunken log2 fold change: 0.142
- sequence text: "RRIRQRPPRLPRPRPRPTMAPRP"
  shrunken log2 fold change: 0.216

Please state shrunken log2 fold change for every sequence in the list that follows.
1. RRIRDRPPRLPRPRPRPRYLPRP
2. RRIRMRPPRLPRPRPRPCCDPRP

1. -0.171
2. 0.393

Please state shrunken log2 fold change for every sequence in the list that follows.
1. RRIRARPPRLPRPRPRPPWTPRP
2. RRIRMRPPRLPRPRPRPKKNPRP

[0.385, 1.46]

Please state shrunken log2 fold change for every sequence in the list that follows.
1. RRIRMRPPRLPRPRPRPLLHPRP
2. RRIRQRPPRLPRPRPRPNGGPRP

1. 0.228
2. 0.00705

Please state shrunken log2 fold change for every sequence in the list that follows.
1. RRIRWRPPRLPRPRPRPWTSPRP
2. RRIRERPPRLPRPRPRPSQWPRP
3. RRIRQRPPRLPRPRPRPRSEPRP
4. RRIRFRPPRLPRPRPRPWCCPRP

-0.0584
-0.176
0.234
-0.654

Please state shrunken log2 fold change for every sequence in the list that follows.
1. RRIRERPPRLPRPRPRPPDGPRP
2. RRIRYRPPRLPRPRPRPANWPRP
3. RRIRFRPPRLPRPRPRPHALPRP
4. RRIRPRPPRLPRPRPRPILRPRP
5. RRIRERPPRLPRPRPRPWTMPRP
6. RRIRDRPPRLPRPRPRPAYVPRP
7. RRIRRRPPRLPRPRPRPDCVPRP

[0.0068, -0.0751, -0.222, -0.0705, 0.0606, -0.00133, -0.0143]

Please state shrunken log2 fold change for every sequence in the list that follows.
1. RRIRWRPPRLPRPRPRPQGRPRP
2. RRIRVRPPRLPRPRPRPMGSPRP
3. RRIRLRPPRLPRPRPRPQIKPRP
4. RRIRARPPRLPRPRPRPFFWPRP
5. RRIRRRPPRLPRPRPRPGAKPRP

[0.64, -0.000992, -0.187, 0.321, 0.701]

Please state shrunken log2 fold change for every sequence in the list that follows.
1. RRIRSRPPRLPRPRPRPLAEPRP
2. RRIRMRPPRLPRPRPRPPWHPRP
3. RRIRRRPPRLPRPRPRPFDYPRP

0.502
0.438
-0.0528

Please state shrunken log2 fold change for every sequence in the list that follows.
1. RRIRVRPPRLPRPRPRPAGAPRP
2. RRIRSRPPRLPRPRPRPDCYPRP

0.417
-0.374

Please state shrunken log2 fold change for every sequence in the list that follows.
1. RRIRPRPPRLPRPRPRPQQFPRP
2. RRIRARPPRLPRPRPRPVEKPRP

1: -0.049; 2: 0.347

###

test system: Escherichia coli TOP10; experiment: shrunken log2 fold change of peptide-encoding DNA abundance (4.5 h post-induction vs induction); higher = less antimicrobial activity (less host growth inhibition); settings: time post-induction: 4.5 h; library: site-saturation at positions 5, 18, 19, 20
Recorded shrunken log2 fold change determines the group label, using lower band: < -0.1; central band: ≥ -0.1 and < 0.003; upper band: ≥ 0.003

- sequence text: "RRIRYRPPRLPRPRPRPYAGPRP"
  label class: "central band"
- sequence text: "RRIRKRPPRLPRPRPRPMIIPRP"
  label class: "central band"
- sequence text: "RRIRARPPRLPRPRPRPWDRPRP"
  label class: "upper band"
- sequence text: "RRIRYRPPRLPRPRPRPLAHPRP"
  label class: "lower band"
- sequence text: "RRIRIRPPRLPRPRPRPAQLPRP"
  label class: "lower band"

Into which bin does this sequence go? RRIRARPPRLPRPRPRPDCRPRP
upper band

Into which bin does this sequence go? RRIRPRPPRLPRPRPRPDEMPRP
upper band

Into which bin does this sequence go? RRIRHRPPRLPRPRPRPFVAPRP
upper band

Into which bin does this sequence go? RRIRNRPPRLPRPRPRPLANPRP
upper band

Into which bin does this sequence go? RRIRYRPPRLPRPRPRPQENPRP
central band

Into which bin does this sequence go? RRIRERPPRLPRPRPRPCASPRP
lower band

Into which bin does this sequence go? RRIRVRPPRLPRPRPRPFMGPRP
lower band

Into which bin does this sequence go? RRIRWRPPRLPRPRPRPLISPRP
central band

Into which bin does this sequence go? RRIRHRPPRLPRPRPRPCQAPRP
lower band

###

test system: Escherichia coli TOP10; test: shrunken log2 fold change of peptide-encoding DNA abundance (4.5 h post-induction vs induction); higher = less antimicrobial activity (less host growth inhibition); conditions: time post-induction: 4.5 h; library: site-saturation at positions 5, 18, 19, 20;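 note: peptides expressed intracellularly from a pBAD plasmid library in pooled LB shake-flask culture, induced with 0.3% L-arabinose, DNA abundance read by NGS, three biological replicates, DESeq2 with apeglm shrinkage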
Decide using shrunken log2 fold change: a value greater than or equal to -0.2 is true (1), a smaller one is false (0).

These recorded examples may help you get a feel for the data.
- sequence text: "RRIRNRPPRLPRPRPRPCINPRP"
  label class: "false (0)"
- sequence text: "RRIRIRPPRLPRPRPRPHGRPRP"
  label class: "true (1)"
- sequence text: "RRIRMRPPRLPRPRPRPEIYPRP"
  label class: "true (1)"
- sequence text: "RRIRARPPRLPRPRPRPFIKPRP"
  label class: "false (0)"
- sequence text: "RRIRARPPRLPRPRPRPEGPPRP"
  label class: "true (1)"

We now examine a further sequence.
# bool: shrunken log2 fold change of RRIRSRPPRLPRPRPRPVHHPRP >= -0.2
true (1)
